B1: minF1; the commonest letter at each place (parent)
chain: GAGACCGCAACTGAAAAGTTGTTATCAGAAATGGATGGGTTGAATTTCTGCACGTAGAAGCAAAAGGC

Variants of: B1
Experiment: fraction ligated after 30 min (ligated reads / total reads); higher = more ligase activity
Settings: with F1*subA RNA substrate (template-directed ligation), 42 °C
Would you mind sorting the entries by fraction ligated according to these classes? category 1 = under 0.008, category 2 = from 0.008 up to 0.08, category 3 = 0.08 and over

* GAGACCGCAACTGAAAAGTTGTTATCAGAATTGGATGGGTTGGATTTCTGCACGTAGAAGCAAAAGGC [A31T A43G] | category 3
* GAGACCGCAACTGAAAAGTTGTTATCATAAATAGATGGGTTGAATTTCTGCACGTAGAAGCAAAAGGC [G28T G33A] | category 3
* GAGACCGCAACTGAAAAGTTGTTATCCGAAATCGATGGGTTGAATTTCTGCACGTAGAAGCAAAAGGC [A27C G33C] | category 3
* GAGACCGCAACTGAAAAGTTGTTATCAGAAATGTATGGGTTGTATTTCTGCACGTAGAAGCAAAAGGC [G34T A43T] | category 1
* GAGACCGCAACTGAAAAGTTGTTATCAGAAATGGATCGGTTCAATTTCTGCACGTAGAAGCAAAAGGC [G37C G42C] | category 1
* GAGACCGCAACTGAAAAGTTGTTATCAGAAAAGTATGGGTTGAATTTCTGCACGTAGAAGCAAAAGGC [T32A G34T] | category 1
* GAGACCGCAACTGAAAAGTTGTTATCAGAAGTGGTTGGGTTGAATTTCTGCACGTAGAAGCAAAAGGC [A31G A35T] | category 2
* GAGACCGCAACTGAAAAGTTGTTATTAGATATGGATGGGTTGAATTTCTGCACGTAGAAGCAAAAGGC [C26T A30T] | category 3
* GAGACCGCAACTGAAAAGTTGTTATCAAAAAGGGATGGGTTGAATTTCTGCACGTAGAAGCAAAAGGC [G28A T32G] | category 2
* GAGACCGCAACTGAAAAGTTGTTATCAGAAATAGTTGGGTTGAATTTCTGCACGTAGAAGCAAAAGGC [G33A A35T] | category 2
* GAGACCGCAACTGAAAAGTTGTAATTAGAAATGGATGGGTTGAATTTCTGCACGTAGAAGCAAAAGGC [T23A C26T] | category 2
* GAGACCGCAACTGAAAAGTTGTTATAAGAAATGTATGGGTTGAATTTCTGCACGTAGAAGCAAAAGGC [C26A G34T] | category 1
* GAGACCGCAACTGAAAAGTTGTGGTCAGAAATGGATGGGTTGAATTTCTGCACGTAGAAGCAAAAGGC [T23G A24G] | category 1
* GAGACCGCAACTGAAAAGTTGTTATCAAAAATGGATGGGTTGGATTTCTGCACGTAGAAGCAAAAGGC [G28A A43G] | category 2
* GAGACCGCAACTGAAAAGTTGTTATCAGAAATGGATGGGTTGGATTTCTGCACGTAGAAGCAAAAGGC [A43G] | category 3
* GAGACCGCAACTGAAAAGTTGTTATTAGAAATGGATGGGTTTAATTTCTGCACGTAGAAGCAAAAGGC [C26T G42T] | category 1
* GAGACCGCAACTGAAAAGTTGTTATCTGAAATGGATGGGTTGACTTTCTGCACGTAGAAGCAAAAGGC [A27T A44C] | category 3
* GAGACCGCAACTGAAAAGTTGTTATCAGCAATGGATTGGTTGAATTTCTGCACGTAGAAGCAAAAGGC [A29C G37T] | category 2
* GAGACCGCAACTGAAAAGTTGTTATTAAAAATGGATGGGTTGAATTTCTGCACGTAGAAGCAAAAGGC [C26T G28A] | category 3
* GAGACCGCAACTGAAAAGTTGTTATCAGAAATGTACGGGTTGAATTTCTGCACGTAGAAGCAAAAGGC [G34T T36C] | category 1
* GAGACCGCAACTGAAAAGTTGTTATCAGACATTGATGGGTTGAATTTCTGCACGTAGAAGCAAAAGGC [A30C G33T] | category 3
* GAGACCGCAACTGAAAAGTTGTTATCAGAAATAGACGGGTTGAATTTCTGCACGTAGAAGCAAAAGGC [G33A T36C] | category 2
* GAGACCGCAACTGAAAAGTTGTTATCAGAAATGTATGGGTTGAATTTCTGCACGTAGAAGCAAAAGGC [G34T] | category 1
* GAGACCGCAACTGAAAAGTTGTTATCAGAAATGGATGGGTTTTCTTTCTGCACGTAGAAGCAAAAGGC [G42T A43T A44C] | category 1
* GAGACCGCAACTGAAAAGTTGTTATTAGAAATGGATGGGTTAAATTTCTGCACGTAGAAGCAAAAGGC [C26T G42A] | category 2
* GAGACCGCAACTGAAAAGTTGTTATCTGAAATTGATGGGTTGAATTTCTGCACGTAGAAGCAAAAGGC [A27T G33T] | category 3
* GAGACCGCAACTGAAAAGTTGTCATCTGAAATGGATGGGTTGAATTTCTGCACGTAGAAGCAAAAGGC [T23C A27T] | category 3
* GAGACCGCAACTGAAAAGTTGTTATAAGACATGGATGGGTTGAATTTCTGCACGTAGAAGCAAAAGGC [C26A A30C] | category 2
* GAGACCGCAACTGAAAAGTTGTTTTCAGAAATGGATCGGTTGAATTTCTGCACGTAGAAGCAAAAGGC [A24T G37C] | category 1
* GAGACCGCAACTGAAAAGTTGTTATCAGATATCGATGGGTTGAATTTCTGCACGTAGAAGCAAAAGGC [A30T G33C] | category 3
* GAGACCGCAACTGAAAAGTTGTTATCAGAAATGGAGCGGTTGAATTTCTGCACGTAGAAGCAAAAGGC [T36G G37C] | category 1
* GAGACCGCAACTGAAAAGTTGTAATCAGAAATGGATGGGTTGTATTTCTGCACGTAGAAGCAAAAGGC [T23A A43T] | category 1
* GAGACCGCAACTGAAAAGTTGTTATCAGTAATAGATGGGTTGAATTTCTGCACGTAGAAGCAAAAGGC [A29T G33A] | category 3
* GAGACCGCAACTGAAAAGTTGTTATCAGCAATGCATGGGTTGAATTTCTGCACGTAGAAGCAAAAGGC [A29C G34C] | category 1
* GAGACCGCAACTGAAAAGTTGTTTCCAGAAATGGATGGGTTGAATTTCTGCACGTAGAAGCAAAAGGC [A24T T25C] | category 2
* GAGACCGCAACTGAAAAGTTGTTACCAGAAATGGATGGGTTGCATTTCTGCACGTAGAAGCAAAAGGC [T25C A43C] | category 1
* GAGACCGCAACTGAAAAGTTGTTATCAGAAATGGATGGGTTTAGTTTCTGCACGTAGAAGCAAAAGGC [G42T A44G] | category 2
* GAGACCGCAACTGAAAAGTTGTTGTCAGAAATAGATGGGTTGAATTTCTGCACGTAGAAGCAAAAGGC [A24G G33A] | category 3
